# measurement-target: human CD3e (T-cell surface glycoprotein CD3 epsilon chain) (human, UniProt P07766 23-207)
# run-description: cell-based or functional assay
test-readout: EC50, luciferase of Jurkat-Luc-NFAT cells; antibody from supernatant

- binder: "1B1-H1K2-IgG1-LALA (antibody, V domains shown, Humanized; human IgG1 with LALA mutations; also called H1K2 (humanized 1B1)) VH: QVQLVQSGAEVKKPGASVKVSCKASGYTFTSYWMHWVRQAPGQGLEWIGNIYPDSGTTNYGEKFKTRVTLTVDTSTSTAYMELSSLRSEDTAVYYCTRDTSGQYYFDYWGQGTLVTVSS VL: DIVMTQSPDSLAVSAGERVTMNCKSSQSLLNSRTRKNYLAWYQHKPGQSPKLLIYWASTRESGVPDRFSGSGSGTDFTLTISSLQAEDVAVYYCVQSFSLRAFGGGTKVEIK"
  result: "> 3.08 µg/mL"

Source of measurements: patent US20210269525A1
